Catalogue of log10 Kd readings, one per entry.
Target: T1, Bcl-B, biotinylated (C-terminal avi-6His) (human, UniProt Q9HD36 1-204, biotin (enzymatic, BirA))
T1 chain: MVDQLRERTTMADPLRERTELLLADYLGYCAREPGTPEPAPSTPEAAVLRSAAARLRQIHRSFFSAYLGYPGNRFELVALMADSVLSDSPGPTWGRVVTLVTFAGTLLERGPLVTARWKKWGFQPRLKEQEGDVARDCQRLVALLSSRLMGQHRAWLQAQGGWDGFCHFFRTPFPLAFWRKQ
Experiment: BLI
assay_readout: log10 Kd (log10 of the value in nM)

INSERT INTO assay_data (binder, assay_readout, assay_value) VALUES
  ('F-ECM04 (enriched combinatorial mutant of F-CDP01) (designed binder) ADPKKVLDKAKDQAENRVRELKQKLEELYKEARKLDLTQEMRKKLEVAALGAVLAAHGDILNAIMQAKEEADKLKKAGLVNSQQLDELKRRLEELKEEALRKASDYGKEFHLKRRY', 'log10 Kd', 3.60),
  ('W-CDP03 (Bcl-w-targeting computationally designed protein) (designed binder) ADPKKVFDEAKDRAENNVRRLKQKLEELYKEARKKDLTQEEREKLKEKYKTAMAAAALAAIGDAFNALLKARKLHKNGQVNEQQLEELARRLQELAKEAFQKAKDYANEFEYKLEY', 'log10 Kd', 2.61),
  ('B-CDP01 (Bcl-B-targeting computationally designed protein) (designed binder) ADPKKVLDKAKDQAENRVRELKQELERLYKEARKLDLTQEMRRKLEWRYIAAMLKAIGDILNAIAQAENEADKLKKAGLVNSQQLDELRRRLEELAKEAARKAHDYGREFQLKLEY', 'log10 Kd', 0.90),
  ('F-CDP01 (Bfl-1-targeting computationally designed protein) (designed binder) ADPKKVLDKAKDQAENRVRELKQKLEELYKEARKLDLTQEMRKKLQYAAIGAMLAAIGDILNAIMQAKQEADKLKKAGLVNSQQLDELKRRLEELKEEALRKAHDYGSEFYLKLEY', 'log10 Kd', 5.00),
  ('B-ECM01 (enriched combinatorial mutant of B-CDP01) (designed binder) ADPKKILDKAKDQVENRVRELKQELERLYKEARKLDLTQEMRRKLHVRYIAAMLKAIAAILNAIAQAENEADKLKKAGLVNSQQLDELRRRLEELTEEAAQKAHDYGREFQLKLEY', 'log10 Kd', 1.90);
